tested-system: human CD33 P235A (human, UniProt P20138 18-364)
Sequence (P20138 18-364 P235A limits assumed): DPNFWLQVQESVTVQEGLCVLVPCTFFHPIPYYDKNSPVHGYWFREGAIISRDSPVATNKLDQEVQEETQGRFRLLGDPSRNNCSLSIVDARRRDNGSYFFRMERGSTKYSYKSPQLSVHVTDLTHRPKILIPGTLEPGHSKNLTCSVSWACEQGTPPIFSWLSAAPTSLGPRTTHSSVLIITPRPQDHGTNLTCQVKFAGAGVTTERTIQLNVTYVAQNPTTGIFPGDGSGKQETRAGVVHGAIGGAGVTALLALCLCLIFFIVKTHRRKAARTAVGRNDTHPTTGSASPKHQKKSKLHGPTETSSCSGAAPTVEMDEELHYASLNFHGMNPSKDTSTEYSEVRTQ
assay-summary: alanine scan, flow cytometry, HEK293-T;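 note: antibody binding to each alanine-substituted CD33 mutant expressed transiently in HEK293-T, read as fluorescence minus background, mean of duplicates, relative to wild-type CD33 set as 100%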
Below: a set of entries, each annotated with reported Mean % WT Binding.
Your answer is read as %, so omit the unit and give the number.

These solved cases illustrate the format of a correct answer.
>  <binder>
Refmab #3 (antibody, V domains shown, In the alanine scan antibodies were used as IgG or Fab) VH: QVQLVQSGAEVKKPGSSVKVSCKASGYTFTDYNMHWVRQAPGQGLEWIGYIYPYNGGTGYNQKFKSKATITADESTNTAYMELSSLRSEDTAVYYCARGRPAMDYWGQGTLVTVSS VL: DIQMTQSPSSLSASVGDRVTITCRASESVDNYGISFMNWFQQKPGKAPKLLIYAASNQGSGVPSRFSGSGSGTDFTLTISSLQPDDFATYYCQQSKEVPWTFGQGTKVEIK

>  <unit-string>
%

>  <number>
120

$$$$
>  <binder>
Refmab #4 (antibody, V domains shown, In the alanine scan antibodies were used as IgG or Fab) VH: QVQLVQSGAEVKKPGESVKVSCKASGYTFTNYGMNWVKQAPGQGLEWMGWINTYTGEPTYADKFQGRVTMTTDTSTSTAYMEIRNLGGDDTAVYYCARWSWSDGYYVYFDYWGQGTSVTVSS VL: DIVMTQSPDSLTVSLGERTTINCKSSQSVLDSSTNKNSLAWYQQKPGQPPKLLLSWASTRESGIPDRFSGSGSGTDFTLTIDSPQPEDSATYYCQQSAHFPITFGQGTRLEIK

>  <unit-string>
%

>  <number>
101

$$$$
>  <binder>
Refmab #2 (antibody, V domains shown, In the alanine scan antibodies were used as IgG or Fab) VH: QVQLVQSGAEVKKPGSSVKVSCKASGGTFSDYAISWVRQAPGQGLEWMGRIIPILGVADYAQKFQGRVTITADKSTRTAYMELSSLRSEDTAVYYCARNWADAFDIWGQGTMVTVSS VL: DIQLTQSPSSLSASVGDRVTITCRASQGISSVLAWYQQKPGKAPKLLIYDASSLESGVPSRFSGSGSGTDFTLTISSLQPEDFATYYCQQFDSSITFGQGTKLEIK

>  <unit-string>
%

>  <number>
108

$$$$

# context switch: different binder, same Mean % WT Binding
GET /value?item= Refmab #1 (antibody, V domains shown, In the alanine scan antibodies were used as IgG or Fab; also called hP67.6) VH: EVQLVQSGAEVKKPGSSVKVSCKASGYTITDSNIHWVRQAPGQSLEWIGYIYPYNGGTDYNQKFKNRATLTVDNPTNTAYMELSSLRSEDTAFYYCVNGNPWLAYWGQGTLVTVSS VL: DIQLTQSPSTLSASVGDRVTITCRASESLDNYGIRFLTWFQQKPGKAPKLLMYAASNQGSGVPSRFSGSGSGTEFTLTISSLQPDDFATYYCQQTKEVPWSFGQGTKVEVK &field=Mean % WT Binding returns 81.4
